B1: ZNF263 (parent)
chain: RTHTGEKPYKCTLCGENFSHRSNL

Variants of: B1
Test: protein stability index of a GFP-peptide fusion (GPS, HEK-293T) (PSI 1-6); higher = more stable;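 further: lentivirally expressed fusions sorted by FACS into six bins by GFP to DsRed ratio, PSI derived from sequencing read proportions per bin multiplied by bin number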
Conditions: c terminus: a fixed tail appended
Would you please tag the item y when its protein stability index is 2 or above, and n when it is below?

>  <VARIANT SPEC>
T12P

>  <ASSIGNED CATEGORY>
y

$$$$
>  <VARIANT SPEC>
K7N

>  <ASSIGNED CATEGORY>
n

$$$$
>  <VARIANT SPEC>
R21L

>  <ASSIGNED CATEGORY>
n

$$$$
>  <VARIANT SPEC>
N23A

>  <ASSIGNED CATEGORY>
y

$$$$
>  <VARIANT SPEC>
R21Q

>  <ASSIGNED CATEGORY>
n

$$$$
>  <VARIANT SPEC>
G5L

>  <ASSIGNED CATEGORY>
n

$$$$
>  <VARIANT SPEC>
G5C

>  <ASSIGNED CATEGORY>
y

$$$$
>  <VARIANT SPEC>
E16M

>  <ASSIGNED CATEGORY>
n

$$$$
>  <VARIANT SPEC>
N17I

>  <ASSIGNED CATEGORY>
y

$$$$
>  <VARIANT SPEC>
L13D

>  <ASSIGNED CATEGORY>
y

$$$$
>  <VARIANT SPEC>
R21D

>  <ASSIGNED CATEGORY>
y

$$$$
>  <VARIANT SPEC>
N17D

>  <ASSIGNED CATEGORY>
n

$$$$
>  <VARIANT SPEC>
S22L

>  <ASSIGNED CATEGORY>
n

$$$$
>  <VARIANT SPEC>
C11T

>  <ASSIGNED CATEGORY>
y

$$$$
>  <VARIANT SPEC>
N17K

>  <ASSIGNED CATEGORY>
y

$$$$
>  <VARIANT SPEC>
L24N

>  <ASSIGNED CATEGORY>
y

$$$$
>  <VARIANT SPEC>
T12V

>  <ASSIGNED CATEGORY>
n

$$$$
>  <VARIANT SPEC>
T12C

>  <ASSIGNED CATEGORY>
n

$$$$
>  <VARIANT SPEC>
F18N

>  <ASSIGNED CATEGORY>
y

$$$$
>  <VARIANT SPEC>
L24W

>  <ASSIGNED CATEGORY>
n

$$$$
>  <VARIANT SPEC>
G15P

>  <ASSIGNED CATEGORY>
y

$$$$
>  <VARIANT SPEC>
G5Y

>  <ASSIGNED CATEGORY>
n

$$$$
>  <VARIANT SPEC>
E6V

>  <ASSIGNED CATEGORY>
y

$$$$
>  <VARIANT SPEC>
G5H

>  <ASSIGNED CATEGORY>
y

$$$$
>  <VARIANT SPEC>
E6W

>  <ASSIGNED CATEGORY>
n

$$$$
>  <VARIANT SPEC>
F18W

>  <ASSIGNED CATEGORY>
y

$$$$
>  <VARIANT SPEC>
K7Y

>  <ASSIGNED CATEGORY>
n

$$$$
>  <VARIANT SPEC>
R1V

>  <ASSIGNED CATEGORY>
y

$$$$
>  <VARIANT SPEC>
P8G

>  <ASSIGNED CATEGORY>
y

$$$$
>  <VARIANT SPEC>
H3M

>  <ASSIGNED CATEGORY>
y

$$$$
>  <VARIANT SPEC>
L13P

>  <ASSIGNED CATEGORY>
y

$$$$
>  <VARIANT SPEC>
G5V

>  <ASSIGNED CATEGORY>
n

$$$$
>  <VARIANT SPEC>
K7V

>  <ASSIGNED CATEGORY>
y

$$$$
>  <VARIANT SPEC>
L13F

>  <ASSIGNED CATEGORY>
y

$$$$
>  <VARIANT SPEC>
Y9Q

>  <ASSIGNED CATEGORY>
n

$$$$
>  <VARIANT SPEC>
E16T

>  <ASSIGNED CATEGORY>
y

$$$$
>  <VARIANT SPEC>
N17P

>  <ASSIGNED CATEGORY>
n

$$$$
>  <VARIANT SPEC>
T4D

>  <ASSIGNED CATEGORY>
n

$$$$
>  <VARIANT SPEC>
R1M

>  <ASSIGNED CATEGORY>
n

$$$$
>  <VARIANT SPEC>
P8C

>  <ASSIGNED CATEGORY>
y

$$$$
>  <VARIANT SPEC>
L24I

>  <ASSIGNED CATEGORY>
y

$$$$
>  <VARIANT SPEC>
S19E

>  <ASSIGNED CATEGORY>
y

$$$$
>  <VARIANT SPEC>
G15R

>  <ASSIGNED CATEGORY>
n

$$$$
>  <VARIANT SPEC>
N17V

>  <ASSIGNED CATEGORY>
n

$$$$
>  <VARIANT SPEC>
H3I

>  <ASSIGNED CATEGORY>
y

$$$$
>  <VARIANT SPEC>
N23Q

>  <ASSIGNED CATEGORY>
n

$$$$
>  <VARIANT SPEC>
G15Y

>  <ASSIGNED CATEGORY>
n

$$$$
>  <VARIANT SPEC>
T4Y

>  <ASSIGNED CATEGORY>
y

$$$$
>  <VARIANT SPEC>
R1Q

>  <ASSIGNED CATEGORY>
n

$$$$
>  <VARIANT SPEC>
T4A

>  <ASSIGNED CATEGORY>
y

$$$$
>  <VARIANT SPEC>
C14E

>  <ASSIGNED CATEGORY>
y

$$$$
>  <VARIANT SPEC>
E16I

>  <ASSIGNED CATEGORY>
n

$$$$
>  <VARIANT SPEC>
S19P

>  <ASSIGNED CATEGORY>
n

$$$$
>  <VARIANT SPEC>
H20W

>  <ASSIGNED CATEGORY>
y

$$$$
>  <VARIANT SPEC>
S19W

>  <ASSIGNED CATEGORY>
n

$$$$
>  <VARIANT SPEC>
T2W

>  <ASSIGNED CATEGORY>
y

$$$$
>  <VARIANT SPEC>
H3D

>  <ASSIGNED CATEGORY>
y

$$$$
>  <VARIANT SPEC>
C11P

>  <ASSIGNED CATEGORY>
y

$$$$
>  <VARIANT SPEC>
C14I

>  <ASSIGNED CATEGORY>
y

$$$$
>  <VARIANT SPEC>
Y9G

>  <ASSIGNED CATEGORY>
n

$$$$
>  <VARIANT SPEC>
L24K

>  <ASSIGNED CATEGORY>
y

$$$$
>  <VARIANT SPEC>
Y9N

>  <ASSIGNED CATEGORY>
y

$$$$
>  <VARIANT SPEC>
G5T

>  <ASSIGNED CATEGORY>
y

$$$$
>  <VARIANT SPEC>
R21G

>  <ASSIGNED CATEGORY>
y

$$$$
>  <VARIANT SPEC>
K7H

>  <ASSIGNED CATEGORY>
y

$$$$
>  <VARIANT SPEC>
N23V

>  <ASSIGNED CATEGORY>
n

$$$$
>  <VARIANT SPEC>
T12R

>  <ASSIGNED CATEGORY>
y

$$$$
>  <VARIANT SPEC>
L13V

>  <ASSIGNED CATEGORY>
y

$$$$
>  <VARIANT SPEC>
E16W

>  <ASSIGNED CATEGORY>
n

$$$$
>  <VARIANT SPEC>
R21I

>  <ASSIGNED CATEGORY>
n

$$$$
>  <VARIANT SPEC>
T12F

>  <ASSIGNED CATEGORY>
y

$$$$
>  <VARIANT SPEC>
C11E

>  <ASSIGNED CATEGORY>
y

$$$$
>  <VARIANT SPEC>
T12E

>  <ASSIGNED CATEGORY>
n

$$$$
>  <VARIANT SPEC>
R21W

>  <ASSIGNED CATEGORY>
n

$$$$
>  <VARIANT SPEC>
H3S

>  <ASSIGNED CATEGORY>
y

$$$$
>  <VARIANT SPEC>
H20Y

>  <ASSIGNED CATEGORY>
y

$$$$
